Reference source for all entries: patent US20240116985A1

- assay-comment: Solubility in PBS
- Format: physicochemical
- condition-parameters: Solubility (uM)
measured-attribute: solubility at 15 min (µM)
Number only, in µM; omit the unit.

compound	solubility at 15 min [µM]
CC(=O)N1CCC[C@]12CC=CCCCC1(CCCC=CCCCOC(=O)N3CC[C@@](C(=O)N[C@@H](Cc4cccs4)C(=O)N[C@@H](Cc4csc5ccccc45)C(=O)N[C@@H](CCC(N)=O)C(N)=O)(C3)NC(=O)[C@H](Cc3ccccc3)NC(=O)[C@H](Cc3ccccc3)NC(=O)[C@H](C)NC(=O)[C@H](C)NC(=O)[C@H](CC(=O)O)NC(=O)[C@H](CC(=O)O)NC1=O)NC(=O)[C@H](CC(C)(C)C)NC(=O)[C@H](CC(=O)O)NC2=O (some centres unmarked) [I-1345]	37
CC(=O)N1CCC[C@]12CC=CCCCC1(CCCC=CCCCOC(=O)N3CC[C@@](C(=O)N[C@@H](Cc4cccs4)C(=O)N[C@@H](Cc4csc5ccccc45)C(=O)N[C@@H](CCC(N)=O)C(N)=O)(C3)NC(=O)[C@H](CC(C)C)NC(=O)[C@H](Cc3ccccc3)NC(=O)[C@H](C)NC(=O)[C@H](C)NC(=O)[C@H](CC(=O)O)NC(=O)[C@H](CC(=O)O)NC1=O)NC(=O)[C@H](CC(C)(C)C)NC(=O)[C@H](CC(=O)O)NC2=O (some centres unmarked) [I-1344]	44
COc1ccccc1C[C@H](NC(=O)[C@]12CCN(C1)C(=O)OCCCC=CCCCC1(CCCC=CC[C@]3(CCCN3C(C)=O)C(=O)N[C@@H](CC(=O)O)C(=O)N[C@@H](CC(C)(C)C)C(=O)N1)C(=O)N[C@@H](CC(=O)O)C(=O)N[C@@H](CC(=O)O)C(=O)N[C@@H](C)C(=O)N[C@@H](C)C(=O)N[C@@H](Cc1ccccc1)C(=O)N[C@@H](Cc1ccccc1)C(=O)N2)C(=O)N[C@@H](Cc1csc2ccccc12)C(=O)N[C@@H](CCC(N)=O)C(N)=O (some centres unmarked) [I-1328]	26

Query: Give recorded solubility at 15 min. CC(=O)N1CCC[C@]12CC=CCCCC1(CCCC=CCCCOC(=O)N3CC[C@@](C(=O)N[C@@H](Cc4ccsc4)C(=O)N[C@@H](Cc4csc5ccccc45)C(=O)N[C@@H](CCC(N)=O)C(N)=O)(C3)NC(=O)[C@H](CC(N)=O)NC(=O)[C@H](Cc3ccccc3)NC(=O)[C@H](CCCCNC(=O)c3ccc(CN4CCN(C)CC4)cc3)NC(=O)[C@H](C)NC(=O)[C@H](CC(=O)O)NC(=O)[C@H](CC(=O)O)NC1=O)NC(=O)[C@H](CC(C)(C)C)NC(=O)[C@H](CC(=O)O)NC2=O (some centres unmarked) [I-889]
Response: 41

Query: Return solubility at 15 min (reported value) for this compound: CC(=O)N1CCC[C@]12CC=CCCCC1(CCCC=CCCCOC(=O)N3CC[C@@](C(=O)N[C@@H](Cc4ccsc4)C(=O)N[C@@H](Cc4csc5ccccc45)C(=O)N[C@@H](CCC(N)=O)C(=O)N[C@@H](CCCCNC(=O)CN4CCN(C)CC4)C(N)=O)(C3)NC(=O)[C@H](CC(N)=O)NC(=O)[C@H](Cc3ccccc3)NC(=O)[C@H](C)NC(=O)[C@H](C)NC(=O)[C@H](CC(=O)O)NC(=O)[C@H](CC(=O)O)NC1=O)NC(=O)[C@H](CC(C)(C)C)NC(=O)[C@H](CC(=O)O)NC2=O (some centres unmarked) [I-906]
Response: 46
